Hello, the source for this data is ChEMBL document CHEMBL1139103, in case you need it.

Target: UniProt P34995
Sequence (P34995 whole entry): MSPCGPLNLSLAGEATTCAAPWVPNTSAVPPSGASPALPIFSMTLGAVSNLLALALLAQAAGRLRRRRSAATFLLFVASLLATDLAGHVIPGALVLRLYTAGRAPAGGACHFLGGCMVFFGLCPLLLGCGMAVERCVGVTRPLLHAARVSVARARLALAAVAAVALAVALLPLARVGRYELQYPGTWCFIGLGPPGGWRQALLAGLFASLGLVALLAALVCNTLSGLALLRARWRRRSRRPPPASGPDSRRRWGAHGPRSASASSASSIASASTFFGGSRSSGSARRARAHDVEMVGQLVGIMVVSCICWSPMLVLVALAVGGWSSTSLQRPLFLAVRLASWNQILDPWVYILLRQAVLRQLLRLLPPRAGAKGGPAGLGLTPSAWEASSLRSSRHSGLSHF
Experiment: Antagonist activity at human EP1 expressed in CHOK1 cells receptor assessed as inhibition of intracellular calcium mobilization by FLIPR assay
Assay type: functional, cell-based, CHO-K1
MEASURE_NAME: Ki (nM)

Which Ki reading was recorded for the compound `Cc1ccc(S(=O)(=O)N(CC(=O)NCc2ccc(Cl)cc2)c2cccnc2C)cc1` ?
676

Quick one: Ki of `COc1ccc(CCNC(=O)CN(c2ccccc2C)S(=O)(=O)c2ccc(C)cc2)c(F)c1OC` ?
66.1

(P) CCc1ccccc1N(CC(=O)NCCc1ccc(OC)c(OC)c1)S(=O)(=O)c1cccc(OC(F)(F)F)c1
(Q) CCc1ccccc1N(CC(=O)NCc1cccc(Cl)c1)S(=O)(=O)c1ccc(C)cc1
(R) COc1ccc(CCNC(=O)CN(c2cccc(C)c2)S(=O)(=O)c2ccc(C)cc2)cc1OC
(S) CCc1ccccc1N(CC(=O)NCCc1ccc(OC)c(OC)c1)S(=O)(=O)c1ccc(C#N)cc1
(T) CCc1ccccc1N(CC(=O)NCc1cccc(OC(F)(F)F)c1)S(=O)(=O)c1ccc(C)cc1
Please produce an ascending ranking of these compounds based on Ki. Record the ranking as a list of labels in the requested order.
S, R, T, P, Q

---

molecular target: UniProtKB P34995; test: Displacement of [3H]PGE2 from EP1 expressed in CHO cells; type: cell-based
pKi: −log10 of the molar value.
MEASURE_NAME: pKi

Using the record for `CCc1ccccc1N(CC(=O)NCc1ccc(OC)cc1)S(=O)(=O)c1ccc(C)cc1` , report its pKi.
7.60

(I) CCc1ccccc1N(CC(=O)NCc1ccc(OC)c(OC)c1)S(=O)(=O)c1ccc(C)cc1
(II) Cc1ccc(S(=O)(=O)N(CC(=O)NCc2ccc(Cl)cc2)c2ncccc2C)cc1
Hi! Which is lower in terms of pKi, the first one I or the second one II ? Answer = label.
II
(II: 6.10, I: 7.60)

---

target: Prostaglandin E2 receptor EP1 subtype (Homo sapiens, UniProt P34995); experiment: Antagonist activity at human EP1 expressed in CHOK1 cells receptor assessed as inhibition of intracellular calcium mobilization by FLIPR assay; format: functional, cell-based, CHO-K1
MEASURE_NAME: Ki (nM)

Some compounds with recorded Ki:
Could you share what Ki was measured for `CCc1ccccc1N(CC(=O)NCCc1ccc(OC)c(OC)c1)S(=O)(=O)c1ccc(OC)cc1` , tested on Prostaglandin E2 receptor EP1 subtype (Homo sapiens, UniProt P34995)?
170

Identify the measured Ki of `Cc1ccc(S(=O)(=O)N(CC(=O)NCCc2ccccc2)c2ccccc2C)cc1` for Prostaglandin E2 receptor EP1 subtype (Homo sapiens, UniProt P34995).
1350

Find the measured Ki: item `COc1ccc(CCNC(=O)CN(c2ccccc2)S(=O)(=O)c2ccc(C)cc2)cc1OC` , target or system Prostaglandin E2 receptor EP1 subtype (Homo sapiens, UniProt P34995).
589

(A) COc1ccc(CCNC(=O)CN(c2ccccc2C)S(=O)(=O)c2ccc(C)cc2)cc1
(B) CCc1ccccc1N(CC(=O)NCc1ccc(Br)cc1)S(=O)(=O)c1ccc(C)cc1
Between these two entries, A and B , state which has the higher Ki. Answer by quoting the chosen item's label.
A
(A: 170 nM, B: 22.9 nM)

---

Let's look at some compounds and their measured pKi.
target: UniProt P34995; assay: Antagonist activity at human EP1 expressed in CHOK1 cells receptor assessed as inhibition of intracellular calcium mobilization by FLIPR assay; type: functional, cell-based, CHO-K1
pKi: −log10 of the molar value.

Request: pKi, test system UniProt P34995, entry `COc1ccc(CCNC(=O)CN(c2ccc(C)cc2)S(=O)(=O)c2ccc(C)cc2)cc1OC`
< 5.95

Further cases:
Report pKi for `COc1ccc(CCNC(=O)CN(c2ccc(F)cc2)S(=O)(=O)c2ccc(C)cc2)cc1OC` tested on UniProt P34995.
< 5.80

Give the reported pKi for `Cc1ccc(S(=O)(=O)N(CC(=O)NCc2ccc(Cl)cc2)c2ccc(C)nc2)cc1` (system: UniProt P34995).
< 5.84

---

Biological target: Prostaglandin E2 receptor EP1 subtype (Homo sapiens, UniProt P34995)
Sequence (P34995 whole entry): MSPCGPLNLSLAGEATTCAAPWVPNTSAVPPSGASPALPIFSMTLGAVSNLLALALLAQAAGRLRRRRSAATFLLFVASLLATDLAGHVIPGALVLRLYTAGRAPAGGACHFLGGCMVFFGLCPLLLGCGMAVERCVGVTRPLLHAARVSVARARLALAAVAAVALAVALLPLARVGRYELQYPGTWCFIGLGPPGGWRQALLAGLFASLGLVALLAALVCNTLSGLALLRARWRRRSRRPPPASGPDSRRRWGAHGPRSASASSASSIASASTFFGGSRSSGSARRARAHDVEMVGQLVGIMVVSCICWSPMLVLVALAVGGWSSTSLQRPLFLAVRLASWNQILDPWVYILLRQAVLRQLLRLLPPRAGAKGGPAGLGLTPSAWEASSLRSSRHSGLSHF
Assay: Antagonist activity at human EP1 expressed in CHOK1 cells receptor assessed as inhibition of intracellular calcium mobilization by FLIPR assay
Assay type: functional, cell-based, CHO-K1
pKi: −log10 of the molar value.
MEASURE_NAME: pKi

Which measured pKi value corresponds to `CCn1nccc1N(CC(=O)NCc1ccc(Cl)cc1)S(=O)(=O)c1ccc(C)cc1` ?
7.14

Requested read-out: pKi. Entry: `Cc1ccc(S(=O)(=O)N(CC(=O)NCc2ccc(Cl)cc2)c2ccc(C)cn2)cc1`
< 5.84

Kindly consider the entry below.
Reported pKi, compound `COc1ccc(CCNC(=O)CN(c2ccc(Br)cc2)S(=O)(=O)c2ccc(C)cc2)cc1OC` : ____
< 5.42
